Sourced from patent US20260152571A1

# system.tested: His-tagged WT1RMF/HLA-A2 complex (human)
# measurement.description: SPR, Biacore 8K; antibody captured on Protein A chip, His-tagged complex as analyte; 1:1 Langmuir fit
Provide the reported kon of each item.
Give bare numbers, in M⁻¹ s⁻¹.

binder | units.of.measure | kon
3A6-IgG1-SI (antibody, V domains shown, VH and VL joined to IgG1 constant regions with SI mutations (S239D and I332E, EU numbering) in the Fc) VH: QVQLQESGPGMVKPSETLSLTCTVSGGSISYNYWSWIRQPPGKGLEWIGYIYHSGTTKYNPSLKSRVTMSVDTSKNHFSLKLNSVTAADTAVYYCARHEDYWFFDLWGRGTLVTVSS VL: DIQMTQSPSSLSASVGDRVTITCRASQGISNYLVWFQQKPGKAPKSLIYAASILQSGVPSKFSGSGSGTDFTLTINSLQPEDFATYYCQQYNTYPFTFGPGTKVDIK | M⁻¹ s⁻¹ | 2870

I have 6 binders here; please give me kon for each one.
1. P01218-IgG1-SI (antibody, V domains shown, VH and VL joined to IgG1 constant regions with SI mutations (S239D and I332E, EU numbering) in the Fc; also called P01218-IgGI-SI) VH: EVQLVESGGGVVQPGRSLRLSCAASGFTFSSYAMHWVRQAPGKGLEWVAVISYDGSNKYYADSVKGRFTISRDNSKNTLYLQMNSLRAEDTAVYYCARAPYYGSGSYYNSYYYYHGMDVWGQGTTVTVSS VL: AIWMTQSPSSLSASVGDRVTITCQASQDISNYLNWYQQKPGKAPNLLIYDASNLETGVPSRFSGSGSGTDFTLTISSLQPEDIATYYCQQYDNLPLTFGGGTKVEIK
2. P01264-IgG1-SI (antibody, V domains shown, VH and VL joined to IgG1 constant regions with SI mutations (S239D and I332E, EU numbering) in the Fc) VH: EVQLVESGGGLVKPGGSLRLSCAASGFTFSNAWMNWVRQAPGKGLEWVGRIKSKTDGGTTDYAAPVKGRFTISRHDSKNTLYLQMNSLKTEDTAVYYCATDPRIAVTGTDYYYGMDVWGQGTTVTVSS VL: DIVMTQTPSFLSASVGDRVTITCRASQDISNYLNWYQQKPGKAPKLLIYDASNLETGVPSRFSGSGSGTDFTFTISSLQPEDIATYYCQQYDNLPITFGQGTRLEIK
3. 7B9-IgG1-SI (antibody, V domains shown, VH and VL joined to IgG1 constant regions with SI mutations (S239D and I332E, EU numbering) in the Fc; also called 7B9-IgGI-SI) VH: EVQLVESGGGVVQPGGSLRLSCAASGFTFDDYAMHWVRQAPGKGLEWVSLISGDDGSTYYADSMKGRITISRDNSKNSLYLQMNSLRTEDTAMYYCAKASYGSGSYLYNYGMDVWGQGTTVTVFS VL: DIQLTQSPSSLSASVGDRVTITCQASQDIINYLNWYQQKPGKAPKLLIYDTSNLETGVPSRFSGSGSGTDFAFTINSLQPEDIATYYCQQFVNLPLTFGGGTKVEIK
4. 1G7-IgG1-SI (antibody, V domains shown, VH and VL joined to IgG1 constant regions with SI mutations (S239D and I332E, EU numbering) in the Fc) VH: QVQLVESGGGVVRPGGSLRLSCTASGFTFDDYGMTWVRQAPGKGLEWVSGINWNGGSTGYADSVKGRFTISRDNAKNSLFLQMNSLRAEDTALYYCARDQGIAVVGTHYYYYYGMDVWGQGTAVTVSS VL: EIVLTQSPATLSLSPGERATLSCRASQSFSSYLAWYQQKPGQAPRLLIFDTSNRATGIPARFSGSGSGTDFTLTISSLEPEDFAVYYCQQRSNWPLTFGGGTKVEIK
5. 1E9-IgG1-SI (antibody, V domains shown, VH and VL joined to IgG1 constant regions with SI mutations (S239D and I332E, EU numbering) in the Fc; also called 1E9-IgGI-SI) VH: EVQMVESGGDVVRPGGSLRLSCAASGFMFDDYGMSWVRHVQGKGLEWVSGIDWNGDSTGYADSVKGRFTISRDNAKNSLYLQMNSLRAEDTALYYCARDQGIAVAGPYNYYYGMDVWGQGTTVTVSS VL: EIVLTQSPATLSLSPGERATLSCRASQSVSSYLAWYQEKPGQAPRLLIFDASNRATGIPARFSGSGSGTDFTLTISSLEPEDFAVYYCQQRSNWPFTFGPGTRVEIK
6. 4F10-IgG1-SI (antibody, V domains shown, VH and VL joined to IgG1 constant regions with SI mutations (S239D and I332E, EU numbering) in the Fc) VH: QVQLQESGPGLVKPSETLSLTCTVSGGSISNYYWSWIRQPPGKGLEWIGYIYYSGSTNYNPSLKSRVNISVDTSKSQVSLKLNSVIAADTAVYYCARHEDYWYFDLWGRGTLVTVSS VL: DIQLTQSPSSLSASIRDRVTITCRASQDINNYLAWFQQKPGKAPKSLIYAVSSLESGVPSKFSGSGSGTDFTLTISSLQPEDFATYFCQQYNSYPFTFGPGTKVEIK

Result:
1: 56200; 2: 146000; 3: 121000; 4: 159000; 5: 73100; 6: 1.54e+06
